Data credit: patent US7511144B2

# experimentalTarget: Human MMP3 (Homo sapiens)
# Sequence (P08254 100-272 limits assumed): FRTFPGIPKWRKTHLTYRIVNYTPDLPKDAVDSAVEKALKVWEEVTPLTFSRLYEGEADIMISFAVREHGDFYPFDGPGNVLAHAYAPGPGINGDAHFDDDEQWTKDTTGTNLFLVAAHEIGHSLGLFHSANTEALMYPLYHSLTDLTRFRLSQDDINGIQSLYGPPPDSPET
pIC50: −log10 of the molar value.
quantityName: pIC50

Cc1ccc(C(C)(CS(=O)(=O)c2ccc(OCc3cc(C)nc4ccccc34)cc2)N(O)C=O)cc1 (stereo not shown)
5.22
Cc1cc(COc2ccc(S(=O)(=O)CC(C=C3CCOCC3)N(O)C=O)cc2)c2ccccc2n1 (stereo not shown)
5.26

(a) Cc1cc(Cl)cc(COc2ccc(S(=O)(=O)CC(CC3CCC4(CC3)OCCO4)N(O)C=O)cc2)c1 (stereo not shown)
(b) Cc1cccc(CCC(CS(=O)(=O)c2ccc(OCc3cc(C)nc4ccccc34)cc2)N(O)C=O)c1 (stereo not shown)
Req: Which gives the smaller pIC50 number: a or b ? Lab note: record the label of whichever item you select.
Resp: b
(b: 4.62, a: 5.22)

* * *

# experimentalTarget: Human MMP13 (Homo sapiens)
# Construct: purchased Chemicon CC068
# testDescription: MMP13 inhibition experiment
# Assay type: biochemical
# studyConditions: concentration required for 50% inhibition of enzyme activity; read-out: IC50 value MMP-13
quantityName: IC50 (µM)

Cc1ccc(CCC(CS(=O)(=O)c2ccc(OCc3cc(C)nc4ccccc34)cc2)N(O)C=O)cc1 (stereo not shown) [Example I-36]
20
Cc1cc(COc2ccc(S(=O)(=O)CC(CN3CCN(CC(C)C)CC3)N(O)C=O)cc2)c2ccccc2n1 (stereo not shown) [Example I-46]
42

(A) Cc1cc(C)cc(COc2ccc(S(=O)(=O)CC(C=C3CCC4(CC3)OCCO4)N(O)C=O)cc2)c1 (stereo not shown) [Example I-91]
(B) Cc1ccc2nc(C)cc(COc3ccc(S(=O)(=O)CC(C=C4CCOCC4)N(O)C=O)cc3)c2c1 (stereo not shown) [Example I-74]
(C) CCC(CC)C(=O)N1CCCC(C(CS(=O)(=O)c2ccc(OCc3cc(C)nc4ccccc34)cc2)N(O)C=O)C1 (stereo not shown) [Example I-130]
(D) Cc1cc(COc2ccc(S(=O)(=O)CC(C=C3CCC(=NO)CC3)N(O)C=O)cc2)cc(C)n1 (stereo not shown) [Example I-111]
(E) Cc1cc(COc2ccc(S(=O)(=O)CC(C3CCN(C(=O)OC(C)(C)C)CC3)N(O)C=O)cc2)c2ccccc2n1 (stereo not shown) [Example I-68]
Req: Put the items in order so that reported IC50 rises from first to last. Answer format: the labels, ordered as requested.
Resp: E, C, D, B, A

* * *

# experimentalTarget: Human MMP17 (Homo sapiens)
# Sequence (Q9ULZ9 126-300 limits assumed): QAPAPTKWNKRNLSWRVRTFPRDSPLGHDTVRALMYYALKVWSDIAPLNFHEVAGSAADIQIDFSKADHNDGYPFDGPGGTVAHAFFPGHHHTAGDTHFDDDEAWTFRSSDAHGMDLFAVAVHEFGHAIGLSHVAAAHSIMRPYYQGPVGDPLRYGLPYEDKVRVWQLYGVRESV
quantityName: IC50 (nM)

Completed entries (count: 2):
Cc1cc(COc2ccc(S(=O)(=O)CC(C3CCC4(CC3)OCCO4)N(O)C=O)cc2)c2ccccc2n1 (stereo not drawn)
220
COc1cc(C)cc(COc2ccc(S(=O)(=O)CC(CC3CCC4(CC3)OCCO4)N(O)C=O)cc2)c1 (stereo not drawn)
20000

(1) O=CN(O)C(C=C1CCC2(CC1)OCCO2)CS(=O)(=O)c1ccc(OCc2ccc3ccccc3n2)cc1 (stereo not drawn)
(2) CC[C@H](C)[C@H](NC(=O)[C@H](CC(C)C)[C@H](C(C)C)N(O)C=O)C(=O)Nc1ccccn1 [compound 3, reference compound]
(3) CC(=O)N1CCC(=CC(CS(=O)(=O)c2ccc(OCc3cc(C)nc4ccccc34)cc2)N(O)C=O)CC1 (stereo not drawn)
Req: Arrange these 3 molecules in increasing order of IC50. Answer by writing out the labels in the requested order.
Resp: 2, 3, 1

(I) Cc1ccc2nc(C)cc(COc3ccc(S(=O)(=O)CC(C=C4CCC(=NO)CC4)N(O)C=O)cc3)c2c1 (stereo not drawn)
(II) Cc1cc(COc2ccc(S(=O)(=O)CC(C=C3CCN(C(=O)OC(C)(C)C)CC3C)N(O)C=O)cc2)c2ccccc2n1 (stereo not drawn)
Req: Given the listed items, does I or II have the lesser reported IC50? Mark your answer with the label of the selected entry.
Resp: II
(II: 1800 nM, I: 11000 nM)

(A) Cc1ccc2nc(C)cc(COc3ccc(S(=O)(=O)CC(C=C4CCOCC4)N(O)C=O)cc3)c2c1 (stereo not drawn)
(B) CC(=O)N1CCC(C(CS(=O)(=O)c2ccc(OCc3cc(C)nc4ccccc34)cc2)N(O)C=O)CC1 (stereo not drawn)
Req: Between item A and item B , which reported IC50 is smaller? Respond with the label that goes with your answer.
Resp: B

(a) CCC(CC)C(=O)N1CCCC(C(CS(=O)(=O)c2ccc(OCc3cc(C)nc4ccccc34)cc2)N(O)C=O)C1 (stereo not drawn)
(b) Cc1cc(COc2ccc(S(=O)(=O)CC(N(O)C=O)C3(C)CCC4(CC3)OCCO4)cc2)c2ccccc2n1 (stereo not drawn)
(c) O=CON=C1CCC(=CC(CS(=O)(=O)c2ccc(OCc3ccc4ccccc4n3)cc2)N(O)C=O)CC1 (stereo not drawn)
(d) Cc1cc(COc2ccc(S(=O)(=O)CC(c3ccccc3C)N(O)C=O)cc2)c2ccccc2n1 (stereo not drawn)
Req: // sort entries: IC50, high to low In plain terms: list the labels in the order you were asked to.
Resp: c, d, b, a
(c: 31000 nM, d: 2100 nM, b: 400 nM, a: 110 nM)

(1) Cc1cc(COc2ccc(S(=O)(=O)CC(N(O)C=O)C3(C)CCOCC3)cc2)c2ccccc2n1 (stereo not drawn)
(2) Cc1cc(COc2ccc(S(=O)(=O)CC(C=C3CCC(=NO)CC3)N(O)C=O)cc2)cc(C)n1 (stereo not drawn)
Req: Lab notebook, comparison: 1 versus 2 , higher IC50 goes to which? Write the label of whichever entry you select.
Resp: 2
